Data provenance: ChEMBL document CHEMBL1156226

tested-on: RAC-alpha serine/threonine-protein kinase (Homo sapiens, UniProt P31749)
Sequence (P31749 whole entry): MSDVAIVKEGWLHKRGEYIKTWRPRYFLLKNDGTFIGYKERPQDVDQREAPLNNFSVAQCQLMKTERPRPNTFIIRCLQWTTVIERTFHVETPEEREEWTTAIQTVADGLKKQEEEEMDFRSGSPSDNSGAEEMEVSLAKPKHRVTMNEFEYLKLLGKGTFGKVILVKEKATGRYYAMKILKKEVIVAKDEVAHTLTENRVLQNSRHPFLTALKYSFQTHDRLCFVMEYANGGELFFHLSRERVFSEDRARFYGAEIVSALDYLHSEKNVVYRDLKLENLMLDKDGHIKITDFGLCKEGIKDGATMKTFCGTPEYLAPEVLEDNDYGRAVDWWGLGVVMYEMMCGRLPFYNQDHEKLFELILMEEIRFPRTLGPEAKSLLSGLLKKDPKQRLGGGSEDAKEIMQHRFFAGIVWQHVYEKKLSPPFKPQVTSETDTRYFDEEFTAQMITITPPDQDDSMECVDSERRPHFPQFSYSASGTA
procedure-summary: Inhibition of PKB at 20 uM by radioactive kinase assay relative to control
metric: inhibition (%)

P: CCC[C@H](NC(=O)[C@H](CCCNC(=N)N)NC(=O)[C@@H]1CCCN1C(=O)[C@H](CCCNC(=N)N)NC(=O)[C@@H](N)CCCNC(=N)N)C(=O)N[C@@H](Cc1ccc(O)cc1)C(=O)N[C@@H](CN)C(=O)N[C@@H](CCC(C)C)C(N)=O
Q: CCC[C@H](NC(=O)[C@H](CCCNC(=N)N)NC(=O)[C@@H]1CCCN1C(=O)[C@H](CCCNC(=N)N)NC(=O)[C@H](N)CCCNC(=N)N)C(=O)N[C@@H](Cc1ccc(O)cc1)C(=O)N[C@@H](CN)C(=O)N[C@@H](CCC(C)C)C(N)=O
Select one: P or Q . Criterion: greater recorded inhibition. Give the label under which the chosen entry appears.
P
(P: 96%, Q: 40%)

I: CCC[C@H](NC(=O)[C@H](CCCNC(=N)N)NC(=O)[C@@H]1CCCN1C(=O)[C@H](CCCNC(=N)N)NC(=O)[C@H](N)CCCCN)C(=O)N[C@@H](Cc1ccc(O)cc1)C(=O)N[C@@H](CN)C(=O)N[C@@H](CCC(C)C)C(N)=O
II: CCC[C@H](NC(=O)[C@H](CCCNC(=N)N)NC(=O)[C@@H]1CCCN1C(=O)[C@H](CCCNC(=N)N)NC(=O)[C@H](N)CCCCN)C(=O)N[C@@H](Cc1ccc(O)cc1)C(=O)N[C@@H](CN)C(=O)N[C@@H](CCC(C)C)C(=O)O
Would you let me know which has the greater inhibition value, I or II ? Please indicate the selected item by its label.
II
(II: 48%, I: 3%)

====

procedure-summary: Stability in presence of trypsin and chymotrypsin assessed as peptide degradation at 1 mM after 30 mins by HPLC
Format: ADME
condition-parameters: read-out: Activity
Peptide text beside a SMILES is read from it.
metric: metabolised at 0.5 h, 1000 µM (%)
Dear colleague, please return just the value in %, with no unit written.

Query: metabolised at 0.5 h, 1000 µM; subject: CCC[C@H](NC(=O)[C@H](CCCNC(=N)N)NC(=O)[C@@H]1CCCN1C(=O)[C@@H](N)CCCNC(=N)N)C(=O)N[C@@H](Cc1ccc(O)cc1)C(=O)N[C@@H](CN)C(=O)N[C@@H](CCC(C)C)C(N)=O (HELM PEPTIDE1{R.P.R.[Nva].Y.[NC[C@H](N[*:1])C(=O)[*:2]].[CC(C)CC[C@H](N[*:1])C(=O)[*:2]].[am]}$$$$V2.0)
40

====

Overview of recorded inhibition for various molecules
tested-on: RAC-alpha serine/threonine-protein kinase (Homo sapiens, UniProt P31749)
procedure-summary: Inhibition of PKB at 5 uM by radioactive kinase assay relative to control
Peptide text beside a SMILES is read from it.
Output spec: scalar in %, unitless text.

CCC[C@H](NC(=O)[C@H](CCCNC(=N)N)NC(=O)[C@@H]1CCCN1C(=O)[C@H](CCCNC(=N)N)NC(=O)[C@H](CCCNC(=N)N)NC(C)=O)C(=O)N[C@@H](Cc1ccc(O)cc1)C(=O)N[C@@H](CN)C(=O)N[C@@H](CCC(C)C)C(N)=O (HELM PEPTIDE1{[ac].R.R.P.R.[Nva].Y.[NC[C@H](N[*:1])C(=O)[*:2]].[CC(C)CC[C@H](N[*:1])C(=O)[*:2]].[am]}$$$$V2.0) : 83

Continue with the molecule presented below.
I am curious: what inhibition value has been reported for CCC[C@H](NC(=O)[C@H](CCCNC(=N)N)NC(=O)[C@@H]1CCCN1C(=O)[C@@H](N)CCCNC(=N)N)C(=O)N[C@@H](Cc1ccc(O)cc1)C(=O)N[C@H](CS)C(=O)N[C@@H](CCC(C)C)C(N)=O ?
95
